System: MCF-10 cells
Assay: Mammalian cell toxicity, MCF-10
Type: cell-based, human
Details: cytotoxicity, Table 8
readout name: IC50

>>> df
                                   compound  target_entity  readout_name  test_value
0  COc1cc(C(C)C#Cc2c(C)nc(N)nc2N)cc(N2CCOCC2)c1 (stereo not drawn) [Compound 152]   MCF-10 cells          IC50      462 µM
1  CCc1nc(N)nc(N)c1C#CC(C)c1cc(OC)cc(-c2ccncc2)c1 (stereo not drawn) [Compound 148]   MCF-10 cells          IC50       85 µM
2  COc1cc(C(C)C#Cc2c(C)nc(N)nc2N)cc(N2C[C@@H](C)O[C@@H](C)C2)c1 (mixture of isomers) [Compound 156]   MCF-10 cells          IC50      314 µM
